B1: Ankyrin repeat and SOCS box protein 14, residues 532 to 572; numbered along this chain, A6NK59 (parent)
chain: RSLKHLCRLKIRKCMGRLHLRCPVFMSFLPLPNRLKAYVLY

Variants of: B1
MEASUREMENT DESCRIPTION: abundance fitness (aPCA) (normalised: wild type 0, dead -1); higher = more abundant; growth selection in yeast, the domain comes from the species named
ASSAY CONDITIONS: Homo sapiens
RECORDED METRIC: abundance fitness
Give the figure by itself; no unit, no explanation.

Name the recorded abundance fitness for S27R . 0.042

Endpoint output: abundance fitness of H19G . Value? 0.024

Tell me the measured abundance fitness of R17Y , please. 0.506

So what's the measured abundance fitness for this one? F25H -0.447

If you can, please state the reported abundance fitness value of L20A . 0.083

// abundance fitness lookup, key: Y38H -0.535
